Test system: A498 renal
experiment-description: NCI-60 one-dose screen, 48 h (100 = growth as untreated, 0 = no growth, -100 = all killed)
recorded-conditions: 10 µM unless noted
Method: Growth inhibition of the A498 human tumor cell line is measured as a screen for anti-cancer activity. Cells are grown in 96 well plates and exposed to the test compound for 48 hours. Compounds are tested at a single concentration, which is 10^-5 M for most compounds. The reported endpoint is percent growth (GI% or GIPRCNT), where numbers from 0 - 100% represent growth inhibition, and numbers from -100% - 0 represent cell death. For example, a value of 40 represents 60% growth inhibition. […]
About 83,000 compounds went through this panel and 20% of them were active in at least one assay; those are over-represented in the sample as a whole.
# growth per entry
Quick note: give the figure in %, leave out the unit.

For orientation, consider the following solved cases.
molecule=O=C1/C(=C/c2cnc(-c3ccccc3)s2)SC(=S)N1Cc1ccc2c(c1)OCO2 readout_name=growth readout_number=45.2
molecule=CS(=O)(=O)Nc1cc(-c2ccc3ncnc(Nc4ccc(OCc5cccnc5)c(Cl)c4)c3c2)cnc1Cl readout_name=growth readout_number=-25.6
molecule=CCOC(=O)c1ccc(NC(=S)NC(=O)c2ccc(NC(=O)C(C)C)cc2OC)cc1 readout_name=growth readout_number=86.7
molecule=COc1ccc(N=Nc2c(N)nn3c(N)c(C#N)c(-c4ccccc4)nc23)cc1 readout_name=growth readout_number=113
molecule=O=C(CSc1nc2sc3c(c2c(=O)n1-c1ccc(Cl)cc1)CCCC3)NNC(=O)c1ccc(F)cc1 readout_name=growth readout_number=121
molecule="COc1c2c(cc3c1C(CCc1ccccc1)N(C)CC3)OCO2 (stereo not drawn)" readout_name=growth readout_number=-15.4
molecule=O=C(CSc1nc2ccccc2c(=O)[nH]1)Nc1ccccc1C(=O)O readout_name=growth readout_number=216
molecule=N#C/C(=C1/C(=O)Nc2ccccc21)c1nnc(NC(=O)c2ccc(-n3c(=O)[nH]c4ccccc4c3=O)cc2)s1 readout_name=growth readout_number=133

Exam item: Could you tell me which growth is on file for CC[C@]12C=CCN3CC[C@]4(C(=C(C(=O)OC)C1)Nc1cc(OC)c([C@@H]5[C@H]6O[C@H]6[C@@]6(CC)CC(C(=O)OC)=C7Nc8cc(O)ccc8[C@@]78CCN5[C@@H]68)cc14)[C@@H]32 ?
Marked response: 59

Exam item: Could you tell me which growth is on file for O=C(c1ccc(Cl)cc1)C1[C@H](c2ccccc2Cl)[C@@H](c2ccccc2)NC12C(=O)Nc1ccc(Cl)cc12 (stereo partly drawn) ?
Marked response: -40.7

Exam item: Could you tell me which growth is on file for Cc1cc(Cl)ccc1NC(=O)Nc1ccc(-c2ccc3c(c2)NC(=O)/C3=C\c2ccc[nH]2)cc1 ?
Marked response: 119

Exam item: Could you tell me which growth is on file for CC(=O)c1ccc2c(N)c(C(=O)Nc3ccc(C(F)(F)F)cc3)sc2n1 ?
Marked response: 126

====

# growth per entry
Test system: K-562 leukemia
experiment-description: NCI-60 one-dose screen, 48 h (100 = growth as untreated, 0 = no growth, -100 = all killed)
recorded-conditions: 10 µM unless noted
Compounds without any hit were thinned out: in the full panel of roughly 83,000, 20% have a hit.
Quick note: give the figure in %, leave out the unit.

For orientation, consider the following solved cases.
compound="Cc1cc(C2(c3cc(C)c(OCC(O)CNc4c(C)n(C)n(-c5ccccc5)c4=O)cc3C(C)C)OC(=O)c3ccccc32)c(C(C)C)cc1OCC(O)CNc1c(C)n(C)n(-c2ccccc2)c1=O (centres undefined)" readout_number=4.53
compound=COc1ccc2[nH]cc(-c3cc4nc(-c5cn(C)c6ncccc56)cc(N)n4n3)c2c1 readout_number=-31.7
compound=CN1CCc2c(sc3ncnc(N/N=C/c4cccc(Cl)c4Cl)c23)C1 readout_number=-7.35

Exam item: Please tell me: growth of CN1C(=O)C(O)(CC(=O)c2cc3ccccc3oc2=O)c2ccccc21 (centres undefined) , system K-562 leukemia?
Marked response: 72.7
